B1: SLC25A39 (parent)
chain: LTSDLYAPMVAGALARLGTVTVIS

Variants of: B1
Assay: protein stability index of a GFP-peptide fusion (GPS, HEK-293T) (PSI 1-6); higher = more stable;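 further: lentivirally expressed fusions sorted by FACS into six bins by GFP to DsRed ratio, PSI derived from sequencing read proportions per bin multiplied by bin number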
Conditions: c terminus: a fixed tail appended
Let's look at some variants and their measured protein stability index.
observed property: protein stability index

INSERT INTO measurements (mutation_string, recorded_value) VALUES
  ('Y6H', 2.34),
  ('V10C', 3.02),
  ('I23N', 1.98),
  ('L17I', 3.23),
  ('S24W', 3.06),
  ('T2M', 3.56),
  ('I23Y', 2.31),
  ('A11N', 2.3),
  ('L17E', 2.71),
  ('M9E', 2.54),
  ('S3F', 3.67),
  ('S24Q', 1.45),
  ('V22C', 3.43),
  ('A15P', 1.97),
  ('Y6C', 2.31),
  ('T19H', 1.94),
  ('G12Y', 2.21),
  ('D4Q', 2.88),
  ('I23P', 1.8),
  ('L14G', 2.76),
  ('L14E', 1.91),
  ('A13Q', 2.61),
  ('G18T', 3.39),
  ('G12S', 1.53),
  ('A13V', 2.79),
  ('S3M', 2.73),
  ('A15S', 3.49),
  ('A7H', 2.38),
  ('A11P', 3.19),
  ('A13C', 2.73),
  ('V22N', 1.11),
  ('V20D', 2.73),
  ('M9D', 1.78),
  ('G18H', 4.48),
  ('I23E', 2.54),
  ('S3G', 3.59),
  ('D4V', 3.22),
  ('M9R', 1.36),
  ('T21E', 2.09),
  ('L1Q', 1.84),
  ('L14N', 1.69),
  ('T2N', 2.52),
  ('T21V', 2.03),
  ('R16I', 2.97),
  ('P8D', 3.54),
  ('S24R', 2.26),
  ('M9K', 1.52),
  ('D4T', 2.84),
  ('A13T', 1.75),
  ('S3K', 1.13),
  ('L14K', 1),
  ('G12R', 3.52),
  ('S3A', 2.75),
  ('V10P', 1.85),
  ('D4S', 2.07),
  ('G12P', 1.23),
  ('M9Y', 3.86),
  ('R16M', 3.22),
  ('M9S', 1.75),
  ('R16N', 1.5),
  ('A7K', 1.61),
  ('L1K', 2.83),
  ('A15G', 2.69),
  ('L14C', 3.43),
  ('T2Q', 2.49),
  ('D4R', 3.25),
  ('S3R', 2.83),
  ('R16W', 2.85),
  ('T21F', 3.5),
  ('S3P', 1.35),
  ('V20Y', 3.19),
  ('L17A', 1.92),
  ('R16L', 2.76),
  ('A15M', 4.42),
  ('L17H', 2.7),
  ('A7I', 4.33),
  ('M9Q', 2.57),
  ('M9T', 2.35),
  ('V10K', 2.15),
  ('I23R', 1.87),
  ('A7T', 1.62),
  ('G12K', 3.64),
  ('V10T', 3.25),
  ('A7Q', 2.86),
  ('L5G', 2.8),
  ('V10N', 1.96),
  ('A11T', 2.81),
  ('G18A', 2.61),
  ('G18K', 2.53),
  ('L14D', 1.83),
  ('V20P', 1.45);
